KD pH 5.5/KD pH 7.4 listing for selected binders.
target: biotinylated human ApoC3 (human) (UniProt P02656); assay: SPR, biotinylated human ApoC3 on streptavidin chip, scFv-Fc injected; ratio of KD at pH 5.5 to KD at pH 7.4
The answer should be a number; do not append a unit.

Example entries begin here.
- BINDER: "5E5WT scFv-Fc antibody (scFv, part only; not given: Linker, domain order, Fc, V domains shown, not shown: another chain or arm of the molecule; a dimerising Fc or GST; small tags and cut ends) VH: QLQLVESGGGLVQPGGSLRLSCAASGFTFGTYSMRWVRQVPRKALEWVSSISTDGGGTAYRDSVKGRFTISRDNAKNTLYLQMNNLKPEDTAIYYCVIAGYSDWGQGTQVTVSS VL: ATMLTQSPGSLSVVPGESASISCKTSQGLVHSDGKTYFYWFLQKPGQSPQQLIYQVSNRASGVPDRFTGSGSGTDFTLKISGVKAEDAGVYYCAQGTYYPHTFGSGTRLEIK"
  MEASURED_VALUE: 3
- BINDER: "5E5VH12_VLWT scFv-Fc antibody (scFv, part only; not given: Linker, domain order, Fc, V domains shown, not shown: another chain or arm of the molecule; a dimerising Fc or GST; small tags and cut ends) VH: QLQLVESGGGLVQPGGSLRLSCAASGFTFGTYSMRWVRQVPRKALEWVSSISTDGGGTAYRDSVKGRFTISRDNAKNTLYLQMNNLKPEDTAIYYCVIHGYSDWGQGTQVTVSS VL: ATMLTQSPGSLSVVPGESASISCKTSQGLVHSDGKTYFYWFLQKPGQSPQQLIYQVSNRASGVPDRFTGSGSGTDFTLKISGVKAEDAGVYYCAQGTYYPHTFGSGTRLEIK"
  MEASURED_VALUE: 31.4
- BINDER: "5E5VHWT_VL8 scFv-Fc antibody (scFv, part only; not given: Linker, domain order, Fc, V domains shown, not shown: another chain or arm of the molecule; a dimerising Fc or GST; small tags and cut ends) VH: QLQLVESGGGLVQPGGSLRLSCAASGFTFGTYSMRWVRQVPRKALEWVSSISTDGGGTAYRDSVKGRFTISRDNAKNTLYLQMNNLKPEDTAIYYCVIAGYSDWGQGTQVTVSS VL: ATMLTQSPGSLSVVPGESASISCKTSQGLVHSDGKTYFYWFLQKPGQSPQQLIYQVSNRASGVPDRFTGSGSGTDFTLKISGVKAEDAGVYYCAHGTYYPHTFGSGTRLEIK"
  MEASURED_VALUE: 7.4

As a next step, examine the binder that follows.
Ask | What value of KD pH 5.5/KD pH 7.4 has been reported for the following binder? 5E5VH5_VLWT scFv-Fc antibody (scFv, part only; not given: Linker, domain order, Fc, V domains shown, not shown: another chain or arm of the molecule; a dimerising Fc or GST; small tags and cut ends) VH: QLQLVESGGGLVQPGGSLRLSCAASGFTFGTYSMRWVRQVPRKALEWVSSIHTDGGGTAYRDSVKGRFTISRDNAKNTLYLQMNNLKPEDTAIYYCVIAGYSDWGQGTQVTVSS VL: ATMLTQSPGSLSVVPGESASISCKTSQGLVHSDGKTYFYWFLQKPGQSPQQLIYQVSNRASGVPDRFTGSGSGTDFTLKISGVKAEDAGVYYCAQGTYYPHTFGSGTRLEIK
Reply | 18.5

From: patent US20200148755A1
